Test system: HIV
Experiment: HIV assay in macrophages
Format: cell-based
Settings: Human immunodeficiency virus 1, Macrophage, Table 5 (Example 8)
Procedure: PBM cells or macrophages were incubated with various concentrations of antiviral agents for 6 days PBM cells) or […] (macrophages), followed by harvest of supernatants and quantification of extracellular HIV using the RT assay or p24 assays as previously described (Gavegnano and Schinazi et al, 2012, AAC). AZT (positive control), no drug controls, or virus alone were also performed in each assay. Assays were performed in 8 independent experiments. […]
recorded-endpoint: pEC50
Answer as the number alone; pEC50 is minus log10 of concentration in mol/L.

Would you please look over these solved cases?
C#C[C@]1(CO)O[C@@H](n2cnc3c(N)nc(F)nc32)C(O)C1O (stereo partly shown) | 9.00
CN(C)c1cccc(-c2c3c(=O)n(-c4ccccc4Cl)[nH]c3cc(=O)n2C)c1 [drawing 73] | 7.52
COc1ccc(NC(=O)Nc2ccc(N)cc2)cc1 [drawing 75] | 9.00

Next molecule, please.
Field pEC50 (entry CC(=O)c1ccc2c(c1)Nc1ccccc1S2 [drawing 74] ) reads 7.70
